system name: human PDHK2 (hPDHK2) (Homo sapiens (Human))
protocol description: Inhibitory action of PDHK activity in vitro (kinase reaction, residual PDH activity measured)
Type: biochemical
applied conditions: PDHK inhibitory activity, class symbol of IC50
pIC50: −log10 of the molar value.
endpoint name: pIC50

COC(=O)c1cccc2c1-c1cc(F)ccc1C2(O)C(F)(F)F (stereo not drawn) [compound 220] : 6.00 to 7.00
CC(=O)NCCn1cc(-c2cccc3c2-c2ccccc2C3(O)C(F)(F)F)cn1 (stereo not drawn) [compound 527] : > 7.00
COCc1ccc2c(c1)C(O)(C(F)(F)F)c1ccccc1-2 (stereo not drawn) [compound 75] : < 6.00
COc1cc(-c2cnn(CCO)c2)c2c(c1)C(O)(C(F)(F)F)c1ccccc1-2 (stereo not drawn) [compound 458] : > 7.00
Cc1ccc2c(c1)C(O)(C(F)(F)F)c1cccnc1-2 (stereo not drawn) [compound 16] : < 6.00
CC1CCN(c2ccc3c(c2)C(O)(C(F)(F)F)c2ccccc2-3)C1 (stereo not drawn) [compound 269] : < 6.00

###

Measured pIC50, listed per entry.
system name: human PDHK2 (hPDHK2) (Homo sapiens (Human), UniProt Q15119)
protocol description: Inhibitory action of PDHK activity in vitro (kinase reaction, residual PDH activity measured)
Format: biochemical
applied conditions: PDHK inhibitory activity, class symbol of IC50
pIC50: −log10 of the molar value.
endpoint name: pIC50

CNC(=O)Cn1cc(-c2cc(Cl)cc3c2-c2ccccc2C3(O)C(F)(F)F)cn1 (stereo not shown) : > 7.00
Nc1ccc2c(c1)C(O)(C(F)(F)F)c1ccccc1-2 (stereo not shown) : < 6.00
OC1(C(F)(F)F)c2ccccc2-c2c(-c3cccnc3)cc(Cl)cc21 (stereo not shown) : > 7.00
O=C1CCC(COc2ccc3c(c2)C(O)(C(F)(F)F)c2ccccc2-3)N1CCCO (stereo not shown) : 6.00 to 7.00
CN(CCOc1cc(Cl)c2c(c1)C(O)(C(F)(F)F)c1ccccc1-2)C(=O)CO (stereo not shown) : > 7.00
OC1(C(F)(F)F)c2ccccc2-c2ccc(OCC3CCC3)cc21 (stereo not shown) : < 6.00
O=C(O)Cc1ccc2c(c1)C(O)(C(F)(F)F)c1ccccc1-2 (stereo not shown) : < 6.00
Cn1cc(-c2cc(OCC(=O)N3CC(CO)C3)cc3c2-c2ccccc2C3(O)C(F)(F)F)cn1 (single isomer, unassigned) [compound 474] : > 7.00
Cn1cc(-c2cc(OCC(=O)N3CCC(CO)CC3)cc3c2-c2ccccc2C3(O)C(F)(F)F)cn1 (stereo not shown) : > 7.00
CCOC(=O)C1CCN(c2ccc3c(c2)C(O)(C(F)(F)F)c2ccccc2-3)CC1 (stereo not shown) : < 6.00
OC1(C(F)(F)F)c2ccccc2-c2c(-c3ccccn3)cccc21 (stereo not shown) : < 6.00
O=C(COc1cc(Br)c2c(c1)C(O)(C(F)(F)F)c1ccccc1-2)N1CCC1 (stereo not shown) : > 7.00
Cn1cc(-c2cc(OCC(=O)N3CCC3)cc3c2-c2ccccc2C3(O)C(F)(F)F)cn1 (stereo not shown) : > 7.00
OC1(C(F)(F)F)c2ccccc2-c2ccc(/C=C/c3ccccc3)cc21 (stereo not shown) : < 6.00
O=C1CCCN1c1ccc2c(c1)C(O)(C(F)(F)F)c1ccccc1-2 (stereo not shown) : < 6.00
COC(=O)N1CCN(c2ccc3c(c2)C(O)(C(F)(F)F)c2ccccc2-3)CC1 (stereo not shown) : < 6.00
Cc1cccc2c1-c1ccccc1C2(O)C(F)(F)F (stereo not shown) : < 6.00
COCOCCN1C(=O)CCC1COc1ccc2c(c1)C(O)(C(F)(F)F)c1ccccc1-2 (stereo not shown) : 6.00 to 7.00
O=C(O)CCn1cc(-c2cc(Cl)c3c(c2)C(O)(C(F)(F)F)c2ccccc2-3)cn1 (stereo not shown) : > 7.00
CNC(=O)c1cccc(-c2ccc3c(c2)C(O)(C(F)(F)F)c2ccccc2-3)c1 (stereo not shown) : 6.00 to 7.00
CN(C)C(=O)C1CCN(c2ccc3c(c2)C(O)(C(F)(F)F)c2ccccc2-3)CC1 (stereo not shown) : < 6.00
OC1(C(F)(F)F)c2ccccc2-c2ccc(-c3ccccn3)cc21 (stereo not shown) : < 6.00

###

system name: human PDHK2 (hPDHK2) (Homo sapiens (Human))
protocol description: Inhibitory action of PDHK activity in vitro (kinase reaction, residual PDH activity measured)
Type: biochemical
applied conditions: read-out: PDHK inhibitory activity IC50
pIC50: −log10 of the molar value.
endpoint name: pIC50

COC(=O)C1CCCN1C(=O)c1ccc2c(c1)C(O)(C(F)(F)F)c1ccccc1-2 (stereo not shown) : 5.71
O=C(COc1ccc2c(c1)C(O)(C(F)(F)F)c1ccccc1-2)N1CCC[C@H]1CO (stereo partly shown) : 5.91
O=C(c1ccc2c(c1)C(O)(C(F)(F)F)c1ccccc1-2)N1CC(C(=O)N2CCCCC2)C1 (stereo not shown) : 6.61
O[C@@H]1CCN(CCOc2ccc3c(c2)C(O)(C(F)(F)F)c2ccccc2-3)C1 (stereo partly shown) : 6.02
OC1(C(F)(F)F)c2ccccc2-c2ccc(-c3cnco3)cc21 (stereo not shown) : 6.72
Cc1cc(C(=O)N2CC(OCCO)C2)cc2c1-c1ccccc1C2(O)C(F)(F)F (single isomer, unassigned) : 7.27
CC(=O)NCCn1cc(-c2cccc3c2-c2ccccc2C3(O)C(F)(F)F)cn1 (stereo not shown) : 7.10
N#Cc1cccc(-c2ccc3c(c2)C(O)(C(F)(F)F)c2ccccc2-3)c1 (stereo not shown) : 6.46
O=C(c1cc(Cl)c2c(c1)C(O)(C(F)(F)F)c1ccccc1-2)N1CC(OCCO)C1 (stereo not shown) : 7.11
COC(=O)c1cc(-c2cncnc2)c2c(c1)C(O)(C(F)(F)F)c1ccccc1-2 (stereo not shown) : 6.75
Cc1cc(C)c2c(c1)C(O)(C(F)(F)F)c1ccccc1-2 (stereo not shown) : 6.34
Cn1cc(-c2cc(OCC(=O)O)cc3c2-c2ccccc2C3(O)C(F)(F)F)cn1 (stereo not shown) [compound 358] : 7.47
OC1(C(F)(F)F)c2ccccc2-c2ccc(-c3cccc(Cl)c3)cc21 (stereo not shown) : 6.16
OC1(C(F)(F)F)c2ccccc2-c2ccc(-c3ccccc3F)cc21 (stereo not shown) : 5.91
COc1cc(-c2cnn(C)c2)c2c(c1)C(O)(C(F)(F)F)c1ccccc1-2 (stereo not shown) : 7.33
CC(C)NC(=O)c1ccc2c(c1)-c1ccccc1C2(O)C(F)(F)F (stereo not shown) : 5.32
CC1CCCN1C(=O)c1ccc2c(c1)C(O)(C(F)(F)F)c1ccccc1-2 (stereo not shown) : 5.60
NC(=O)c1ccc(-c2ccc3c(c2)C(O)(C(F)(F)F)c2ccccc2-3)cc1Cl (stereo not shown) : 6.75
CC(C)(C)Cn1cc(-c2cc(CO)c3c(c2)C(O)(C(F)(F)F)c2ccccc2-3)cn1 (single isomer, unassigned) [compound 660] : 7.77
O=C1CCCN1CCCc1cc(CO)c2c(c1)C(O)(C(F)(F)F)c1ccccc1-2 (stereo not shown) : 6.76
COC(=O)C1CCN(C(=O)c2ccc3c(c2)C(O)(C(F)(F)F)c2ccccc2-3)C1 (stereo not shown) : 5.65
CN(CCOc1cc(-c2cnn(C)c2)c2c(c1)C(O)(C(F)(F)F)c1ccccc1-2)C(=O)CO (stereo not shown) : 7.68
OC1(C(F)(F)F)c2ccccc2-c2ncc(Cl)cc21 (stereo not shown) : 6.20
Cn1cc(-c2cc(OCC(=O)N3CCC3)cc3c2-c2ccccc2C3(O)C(F)(F)F)cn1 (stereo not shown) : 7.44
CC(C)Cn1cc(-c2cc(C(N)=O)c3c(c2)C(O)(C(F)(F)F)c2ccccc2-3)cn1 (stereo not shown) : 7.43
OC1(C(F)(F)F)c2ccccc2-c2ccc(OC3CCCC3)cc21 (stereo not shown) : 5.86

###

system name: human PDHK2 (hPDHK2) (Homo sapiens (Human))
protocol description: Inhibitory action of PDHK activity in vitro (kinase reaction, residual PDH activity measured)
Type: biochemical
applied conditions: PDHK inhibitory activity, class symbol of IC50
endpoint name: IC50

COC(=O)c1cc(C)c2c(c1)C(O)(C(F)(F)F)c1ccccc1-2 (stereo not shown) : 100 to 1000 nM
CC1CCCN1c1ccc2c(c1)C(O)(C(F)(F)F)c1ccccc1-2 (stereo not shown) : > 1000 nM
CC(O)c1cc(-c2cnn(C)c2)cc2c1-c1ccccc1C2(O)C(F)(F)F (stereo not shown) : 100 to 1000 nM
OC1(C(F)(F)F)c2ccccc2-c2ccc(-c3ccccc3F)cc21 (stereo not shown) : > 1000 nM
O=C(COc1ccc2c(c1)C(O)(C(F)(F)F)c1ccccc1-2)N1CCCC1 (stereo not shown) : 100 to 1000 nM
CN(CCO)C(=O)c1cc(-c2cncnc2)c2c(c1)C(O)(C(F)(F)F)c1ccccc1-2 (stereo not shown) : 100 to 1000 nM
OC1(C(F)(F)F)c2ccccc2-c2c(C(F)(F)F)cccc21 (stereo not shown) : > 1000 nM
O=C1CCCN1CCOc1cnc2c(c1)C(O)(C(F)(F)F)c1ccccc1-2 (stereo not shown) : < 100 nM
OC1(C(F)(F)F)c2ccccc2-c2c(-c3cncnc3)cccc21 (stereo not shown) : 100 to 1000 nM
COC(=O)COc1cc(Cl)c2c(c1)C(O)(C(F)(F)F)c1ccccc1-2 (stereo not shown) [compound 480] : 100 to 1000 nM
Cn1cc(-c2cc(OCCC34CC5CC(CC(O)(C5)C3)C4)cc3c2-c2ccccc2C3(O)C(F)(F)F)cn1 (single isomer, unassigned) : < 100 nM
O=C1CC[C@@H](COc2ccc3c(c2)C(O)(C(F)(F)F)c2ccccc2-3)N1 (stereo partly shown) : 100 to 1000 nM
COC(=O)c1cccc2c1-c1ccccc1C2(O)C(F)(F)F (stereo not shown) : 100 to 1000 nM
CCN(CC)C(=O)C1CN(C(=O)c2ccc3c(c2)C(O)(C(F)(F)F)c2ccccc2-3)C1 (stereo not shown) : 100 to 1000 nM
CCCOC(=O)c1cccc2c1-c1ccccc1C2(O)C(F)(F)F (stereo not shown) : 100 to 1000 nM
Oc1cccc2c1-c1ccccc1C2(O)C(F)(F)F (stereo not shown) : > 1000 nM

Data provenance: patent US8871934B2
